Biological target: human ether-à-go-go-related gene (hERG) potassium channel (human)
Sequence (Q12809 whole entry, looked up): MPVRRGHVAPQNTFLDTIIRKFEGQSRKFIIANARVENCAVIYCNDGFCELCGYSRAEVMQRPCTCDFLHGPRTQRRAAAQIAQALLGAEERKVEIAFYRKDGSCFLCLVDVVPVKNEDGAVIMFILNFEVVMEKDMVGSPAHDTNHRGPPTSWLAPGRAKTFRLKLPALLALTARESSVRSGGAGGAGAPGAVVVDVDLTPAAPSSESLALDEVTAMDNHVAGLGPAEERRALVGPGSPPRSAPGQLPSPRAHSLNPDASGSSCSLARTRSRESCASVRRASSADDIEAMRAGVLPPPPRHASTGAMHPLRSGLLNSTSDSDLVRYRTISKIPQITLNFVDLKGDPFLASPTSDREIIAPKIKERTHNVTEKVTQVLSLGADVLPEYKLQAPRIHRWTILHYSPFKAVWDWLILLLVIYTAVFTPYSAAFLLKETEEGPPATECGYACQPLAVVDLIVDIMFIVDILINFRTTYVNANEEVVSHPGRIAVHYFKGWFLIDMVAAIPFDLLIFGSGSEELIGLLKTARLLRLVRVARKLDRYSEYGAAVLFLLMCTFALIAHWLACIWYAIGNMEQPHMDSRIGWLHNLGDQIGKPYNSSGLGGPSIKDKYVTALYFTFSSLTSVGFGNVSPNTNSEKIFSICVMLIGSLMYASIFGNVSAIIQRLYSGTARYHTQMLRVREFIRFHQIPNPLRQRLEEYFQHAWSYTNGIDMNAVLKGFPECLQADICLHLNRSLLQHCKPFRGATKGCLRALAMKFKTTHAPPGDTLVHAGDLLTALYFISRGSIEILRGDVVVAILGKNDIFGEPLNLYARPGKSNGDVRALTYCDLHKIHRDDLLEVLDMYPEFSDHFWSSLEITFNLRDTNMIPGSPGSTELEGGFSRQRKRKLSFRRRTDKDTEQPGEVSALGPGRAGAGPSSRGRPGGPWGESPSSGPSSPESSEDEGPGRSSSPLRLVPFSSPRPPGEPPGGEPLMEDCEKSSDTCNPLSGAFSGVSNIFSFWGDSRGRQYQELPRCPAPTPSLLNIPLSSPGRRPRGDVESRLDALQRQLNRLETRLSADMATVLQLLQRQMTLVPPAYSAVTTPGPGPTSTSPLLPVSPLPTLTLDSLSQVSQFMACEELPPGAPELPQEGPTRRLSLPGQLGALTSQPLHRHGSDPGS
Experiment: primary screen, population patch clamp on CHO cells stably expressing hERG; higher = less effect of the substance
Hit rate of the full screen: of about 310,000 compounds, about 2,200 (0.71%) showed an effect of 50% or more. Effects have a minus sign here. This excerpt belongs to a sample that is enriched for strong results.
quantity.measured: hERG current change (%, negative = inhibition) at 1uM
Give the figure together with its unit, number first.

{"compound": "O=C(Cn1cnc2ccccc21)Nc1ccc(C(=O)O)cc1.O=C(O)C(=O)O", "target.entity": "human ether-à-go-go-related gene (hERG) potassium channel (human)", "reported.measurement": "-52.9%"}
{"compound": "CCN1CCN(c2ccc(S(=O)(=O)N3CCCCC3)cc2NC(=O)c2ccc(OC(F)F)cc2)CC1", "target.entity": "human ether-à-go-go-related gene (hERG) potassium channel (human)", "reported.measurement": "-56.4%"}
{"compound": "O=C(Nc1cc(Cl)cc(Cl)c1)c1cnn2cccnc12", "target.entity": "human ether-à-go-go-related gene (hERG) potassium channel (human)", "reported.measurement": "16.2%"}
{"compound": "Cn1cnnc1SC(C(=O)Nc1ccc(F)cc1)c1ccccc1 (stereo not shown)", "target.entity": "human ether-à-go-go-related gene (hERG) potassium channel (human)", "reported.measurement": "4.93%"}
{"compound": "COc1ccc(OCC(O)CN2CCNCC2)cc1.Cl (stereo not shown)", "target.entity": "human ether-à-go-go-related gene (hERG) potassium channel (human)", "reported.measurement": "14.6%"}

For the compound CSCC(=O)N1CCCC(N2CCN(c3ccc(F)cc3)CC2)C1 (stereo not shown) , give its reported hERG current change (%, negative = inhibition) at 1uM.
0.918%

For the compound O=C(c1ccco1)N1C(=O)c2cccc3c(S(=O)(=O)N4CCCC4)ccc1c23 , give its reported hERG current change (%, negative = inhibition) at 1uM.
6.3%

For the compound COc1ccc(N2CCN(C(=O)c3ccccc3)CC2)c([N+](=O)[O-])c1 , give its reported hERG current change (%, negative = inhibition) at 1uM.
-33.8%

For the compound Cn1c(=O)c2c(ncn2CC(=O)N2CCN(c3ccc(F)cc3)CC2)n(C)c1=O , give its reported hERG current change (%, negative = inhibition) at 1uM.
-0.183%

For the compound CCCCN(CCCC)CCCNC(=O)C12CN(Cc3ccccc3)CC1C(c1cccc([N+](=O)[O-])c1)=NO2 (stereo not shown) , give its reported hERG current change (%, negative = inhibition) at 1uM.
-53.1%

---

Target: human ether-à-go-go-related gene (hERG) potassium channel (human)
Assay: primary screen, population patch clamp on CHO cells stably expressing hERG; higher = less effect of the substance
The whole screen tested about 310,000 compounds, of which about 2,200 (0.71%) showed an effect of 50% or more. Effects have a minus sign here. The entries come from a sample that favours strong results as a whole.
quantity.measured: hERG current change (%, negative = inhibition) at 1uM (%)
State the answer as a number, implicitly in %.

Below: 10 molecules and their reported hERG current change (%, negative = inhibition) at 1uM.
{"molecule": "CCCCN(C)CCNC(=O)CN1C(=O)CSc2ccc(S(=O)(=O)N3CCCCC3)cc21", "target.entity": "human ether-à-go-go-related gene (hERG) potassium channel (human)", "reported.measurement": -6.21}
{"molecule": "N=c1c(C(=O)NC2CCCC2)cc2c(=O)n3ccccc3nc2n1CC1CCCO1 (centres unmarked)", "target.entity": "human ether-à-go-go-related gene (hERG) potassium channel (human)", "reported.measurement": -94.4}
{"molecule": "CCc1ccc(CN2CCC(n3nccc3NC(=O)c3ccccc3Cl)CC2)cc1", "target.entity": "human ether-à-go-go-related gene (hERG) potassium channel (human)", "reported.measurement": -92.3}
{"molecule": "O=c1c2c(nc3n1CCS3)c1cc(F)ccc1n2Cc1cc(=O)n2cc(Cl)ccc2n1", "target.entity": "human ether-à-go-go-related gene (hERG) potassium channel (human)", "reported.measurement": 10.3}
{"molecule": "CCOc1ccc(S(=O)(=O)NCCCN2CCOCC2)cc1", "target.entity": "human ether-à-go-go-related gene (hERG) potassium channel (human)", "reported.measurement": 9.88}
{"molecule": "CS(=O)(=O)Nc1ccc(C2=NN(S(=O)(=O)c3ccc(F)cc3)C(c3ccco3)C2)cc1 (centres unmarked)", "target.entity": "human ether-à-go-go-related gene (hERG) potassium channel (human)", "reported.measurement": -15.6}
{"molecule": "COc1ccccc1C(=O)Nc1ccnn1C1CCN(CCCc2ccccc2)CC1", "target.entity": "human ether-à-go-go-related gene (hERG) potassium channel (human)", "reported.measurement": -88.1}
{"molecule": "CCN1CCC(n2nccc2NC(=O)c2ccccc2Cl)CC1", "target.entity": "human ether-à-go-go-related gene (hERG) potassium channel (human)", "reported.measurement": 10.5}
{"molecule": "Cn1ncc(Br)c1C(=O)Nc1ccc(Br)cn1", "target.entity": "human ether-à-go-go-related gene (hERG) potassium channel (human)", "reported.measurement": 16.3}
{"molecule": "COc1ccccc1-c1nnc2sc(-c3cc4ccccc4o3)nn12", "target.entity": "human ether-à-go-go-related gene (hERG) potassium channel (human)", "reported.measurement": -0.794}

For the molecule CC(C)(C)OC(=O)N[C@H](C(=O)OC(C)(C)C)c1ccc(C(F)(F)F)cc1 , give its reported hERG current change (%, negative = inhibition) at 1uM.
12.8

For the molecule CN(C)CCCn1c(SCC(=O)Nc2nc(-c3cccc(Br)c3)cs2)nc2ccccc2c1=O , give its reported hERG current change (%, negative = inhibition) at 1uM.
-3.37

For the molecule N=c1c(C(=O)NC2CCCCC2)cc2c(=O)n3ccccc3nc2n1CC1CCCO1 (centres unmarked) , give its reported hERG current change (%, negative = inhibition) at 1uM.
-79.2
